Give measured pIC50 for each item. Keep answers brief.
# Test system: Kasumi-1 cells
# run description: Kasumi-1 cell inhibitory activity (CellTiter-Glo, 5 days)
# Format: cell-based
# experimental parameters: Homo sapiens, 120 h, 5 days incubation, CellTiter-Glo luminescence
pIC50: −log10 of the molar value.

Sample answers from the record:
- structure as smiles: "O=C(NCc1cc2[nH]c(CNCC34CC(CO3)C4)cc2cc1F)c1cc(=O)n2cc3c(cc2n1)OCCO3"
  observed value: "6.00 to 7.00"
- structure as smiles: "O=C(NCc1ccc2cc(CNCC3CCC3)[nH]c2c1)c1cc(=O)n2cc3c(cc2n1)OCCO3"
  observed value: "6.00 to 7.00"
- structure as smiles: "O=C(NCc1ccc2cc(CNCC34CC(F)(C3)C4)[nH]c2c1)c1cc(=O)n2cc3c(cc2n1)OCCO3"
  observed value: "> 7.00"
- structure as smiles: "[2H]C([2H])(NCc1cc2ccc(CNC(=O)c3cc(=O)n4cc5c(cc4n3)OCCO5)cc2[nH]1)C12CC(CO1)C2"
  observed value: "6.00 to 7.00"
- structure as smiles: "CC1(CNCc2cc3ccc(CNC(=O)c4cc(=O)n5cc6c(cc5n4)OCCO6)cc3[nH]2)CCC1"
  observed value: "6.00 to 7.00"

Go through the list and state pIC50 for each entry.
1. O=C(NCc1ccc2cc(CNCC3CC(F)(F)C3)[nH]c2c1)c1cc(=O)n2cc3c(cc2n1)OCO3
2. [2H]C([2H])(NCc1cc2ccc(CNC(=O)c3cc(=O)n4cc5c(cc4n3)OCO5)cc2[nH]1)C1CCC1

Result:
6.00 to 7.00
> 7.00

###

Give measured pIC50 for each item. Keep answers brief.
# subject of test: METTL3/14 (Homo sapiens)
# Sequence (Q86U44 whole entry): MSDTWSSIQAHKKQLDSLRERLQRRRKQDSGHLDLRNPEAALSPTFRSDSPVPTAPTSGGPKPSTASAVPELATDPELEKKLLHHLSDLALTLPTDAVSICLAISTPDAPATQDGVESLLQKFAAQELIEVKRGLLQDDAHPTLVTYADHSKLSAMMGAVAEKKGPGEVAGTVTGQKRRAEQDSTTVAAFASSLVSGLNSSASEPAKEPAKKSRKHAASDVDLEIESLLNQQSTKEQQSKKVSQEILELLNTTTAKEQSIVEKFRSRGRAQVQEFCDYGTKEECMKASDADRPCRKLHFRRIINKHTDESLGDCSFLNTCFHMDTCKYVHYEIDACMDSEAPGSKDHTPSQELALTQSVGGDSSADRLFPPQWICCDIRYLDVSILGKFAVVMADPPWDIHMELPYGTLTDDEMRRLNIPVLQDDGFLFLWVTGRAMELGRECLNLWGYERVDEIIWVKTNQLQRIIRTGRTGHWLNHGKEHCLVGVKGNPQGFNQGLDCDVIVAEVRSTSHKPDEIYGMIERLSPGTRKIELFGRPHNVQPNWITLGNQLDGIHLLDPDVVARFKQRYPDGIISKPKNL
# Sequence (Q9HCE5 whole entry partner): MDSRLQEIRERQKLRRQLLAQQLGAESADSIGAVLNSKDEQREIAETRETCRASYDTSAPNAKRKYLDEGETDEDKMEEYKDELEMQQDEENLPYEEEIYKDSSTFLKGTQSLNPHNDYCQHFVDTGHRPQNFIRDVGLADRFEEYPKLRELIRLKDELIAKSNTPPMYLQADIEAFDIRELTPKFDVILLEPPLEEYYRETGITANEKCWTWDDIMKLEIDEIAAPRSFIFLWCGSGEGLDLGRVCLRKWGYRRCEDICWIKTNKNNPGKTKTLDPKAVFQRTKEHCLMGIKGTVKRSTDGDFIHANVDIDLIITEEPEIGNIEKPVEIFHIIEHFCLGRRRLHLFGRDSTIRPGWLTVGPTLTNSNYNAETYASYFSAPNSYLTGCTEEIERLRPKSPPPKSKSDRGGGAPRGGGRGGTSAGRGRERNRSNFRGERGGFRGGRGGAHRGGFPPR
# run description: METTL3/14 methyltransferase activity assay (HTRF)
# experimental parameters: 10 concentrations, 3-fold dilution from 10 µM
pIC50: −log10 of the molar value.

- molecule: "O=C(NCc1ccc2cc(CN3CCc4ccccc4C3)[nH]c2c1)c1cc(=O)n2cc3c(cc2n1)OCO3 [Example 34]"
  pIC50: "7.00 to 8.00"

Go through the list and state pIC50 for each entry.
1. O=C(NCc1ccc2cc(CNCC3CCC3)[nH]c2c1)c1cn2ncc3c2c(n1)NCCC3 [Example 45]
2. CNc1nc(C(=O)NCc2ccc3cc(CNCC4CCC4)[nH]c3c2)cn2nccc12 [Example 13]
3. O=C(NCc1ccc2cc(CNCC34CC(CO3)C4)[nH]c2c1)c1cc(=O)n2cc3c(cc2n1)OCO3 [Example 84]

Result:
1. 7.00 to 8.00
2. 7.00 to 8.00
3. > 8.00

Go through the list and state pIC50 for each entry.
1. O=C(NCc1ccc2cc(CNCC34CC(CO3)C4)[nH]c2c1)c1cc(=O)n2cc3c(cc2n1)OCCO3 [Example 77]
2. [2H]C([2H])(NCc1cc2cc(F)c(CNC(=O)c3cc(=O)n4cc5c(cc4n3)OCCO5)cc2[nH]1)C12CC(F)(C1)C2 [Example 94]
3. [2H]C([2H])(NCc1cc2cc(F)c(CNC(=O)c3cc(=O)n4cc5c(cc4n3)OCO5)cc2[nH]1)C12CC(F)(C1)C2 [Example 89]
4. O=C(NCc1ccc2cc(CNCC34CCCC3C4)[nH]c2c1)c1cc(=O)n2cc3c(cc2n1)OCCO3 (stereo not drawn) [Example 63]

Result:
1: > 8.00; 2: > 8.00; 3: > 8.00; 4: > 8.00

Go through the list and state pIC50 for each entry.
1. O=C(NC1(c2ccc3cc(CNCC4CCC4)[nH]c3c2)CC1)c1cc(=O)n2cc3c(cc2n1)OCO3 [Example 42]
2. O=C(NCc1ccc2cc(CNCc3ccc(F)s3)[nH]c2c1)c1cc(=O)n2cc3c(cc2n1)OCCO3 [Example 76]

Result:
["6.00 to 7.00", "7.00 to 8.00"]

###

# System: Kasumi-1 cells
# run description: Kasumi-1 cell inhibitory activity (CellTiter-Glo, 5 days)
# Format: cell-based
# experimental parameters: Homo sapiens, 120 h, 5 days incubation, CellTiter-Glo luminescence
# Method: Test compounds were dissolved in DMSO to prep are a 250×final concentration solution. The initial concentration was 10 µM with 3-fold dilution, resulting in a total of ten concentration points. 4 µL of the compound solution was added to 96 µL of cell culture medium to dilute it to 10×the final concentration. […] Luminescence values were recorded using Paradigm, and the response-concentration curve was fitted with Graphpad Pr ism 8.0 to calculate IC50values. […]
pIC50: −log10 of the molar value.
quantity measured: pIC50

- molecule: "O=C(NCc1ccc2cc(CNCC34CC(F)(C3)C4)[nH]c2c1)c1cc(=O)n2cc3c(cc2n1)OCO3 [Example 36]"
  pIC50: "> 7.00"
- molecule: "O=C(NCc1cc2[nH]c(CNCC34CC(CO3)C4)cc2cc1F)c1cc(=O)n2cc3c(cc2n1)OCO3 [Example 87]"
  pIC50: "6.00 to 7.00"
- molecule: "O=C(NCc1ccc2cc(CNCC3CCC3)[nH]c2c1)c1cn2ncc3c2c(n1)NCCC3 [Example 45]"
  pIC50: "6.00 to 7.00"
- molecule: "CC1(CNCc2cc3ccc(CNC(=O)c4cc(=O)n5cc6c(cc5n4)OCO6)cc3[nH]2)CCC1 [Example 51]"
  pIC50: "6.00 to 7.00"
- molecule: "O=C(NCc1ccc2cc(CNCC34CC(CO3)C4)[nH]c2c1)c1cc(=O)n2cc3c(cc2n1)OCO3 [Example 84]"
  pIC50: "6.00 to 7.00"
- molecule: "O=C(NCc1cc2[nH]c(CNCC3CCC3)cc2s1)c1cc(=O)n2cc3c(cc2n1)OCO3 [Example 32]"
  pIC50: "6.00 to 7.00"

# ---- query molecule ----
Problem: # lookup: pIC50 of [2H]C([2H])(NCc1cc2ccc(CNC(=O)c3cc(=O)n4cc5c(cc4n3)OCCO5)cc2[nH]1)C12CC(F)(C1)C2 [Example 95]
Result: > 7.00

###

Give measured pIC50 for each item. Keep answers brief.
# Tested on: Kasumi-1 cells
# run description: Kasumi-1 cell inhibitory activity (CellTiter-Glo, 5 days)
# Type: cell-based
# experimental parameters: Homo sapiens, 120 h, 5 days incubation, CellTiter-Glo luminescence
pIC50: −log10 of the molar value.

Go through the list and state pIC50 for each entry.
1. CC1(CNCc2cc3ccc(CNC(=O)c4cc(=O)n5cc6c(cc5n4)OCO6)cc3[nH]2)CC(F)(F)C1
2. [2H]C([2H])(NCc1cc2ccc(CNC(=O)c3cc(=O)n4cc5c(cc4n3)OCO5)cc2[nH]1)C12CC(CO1)C2
3. [2H]C([2H])(NCc1cc2cc(F)c(CNC(=O)c3cc(=O)n4cc5c(cc4n3)OCCO5)cc2[nH]1)C12CC(F)(C1)C2
4. O=C(NCc1ccc2cc(CNCC3CC(F)(F)C3)[nH]c2c1)c1cc(=O)n2cc3c(cc2n1)OCCO3
5. CC1(CNCc2cc3ccc(CNC(=O)c4cc(=O)n5cc6c(cc5n4)OCCO6)cc3[nH]2)CC(F)(F)C1
6. [2H]C([2H])(NCc1cc2cc(F)c(CNC(=O)c3cc(=O)n4cc5c(cc4n3)OCO5)cc2[nH]1)C12CC(F)(C1)C2

Result:
1: 6.00 to 7.00; 2: 6.00 to 7.00; 3: > 7.00; 4: 6.00 to 7.00; 5: 6.00 to 7.00; 6: > 7.00

Problem: # lookup: pIC50 of O=C(NCc1ccc2cc(CNCC3CCC3)[nH]c2c1)c1cc(=O)n2cc3c(cc2n1)OCO3
Result: 6.00 to 7.00

###

# subject of test: METTL3/14 (Homo sapiens)
# run description: METTL3/14 methyltransferase activity assay (HTRF)
# experimental parameters: 10 concentrations, 3-fold dilution from 10 µM
pIC50: −log10 of the molar value.
Give measured pIC50 for each item. Keep answers brief.

Go through the list and state pIC50 for each entry.
1. O=C(NCc1cc2ccc(CNCC3CCC3)cc2[nH]1)c1cc(=O)n2ccccc2n1
2. O=C(NCc1ccc2cc(CNCC34CC(F)(C3)C4)[nH]c2c1)c1cc(=O)n2cc3c(cc2n1)OCO3
3. O=C(NCc1ccc2cc(CNCC3CCC3)[nH]c2c1)c1cn2nccc2c(N2CCCC2)n1
4. O=C(NCc1ccc2cc(CNCC3CC(F)(F)C3)[nH]c2c1)c1cc(=O)n2cc3c(cc2n1)OCCO3
5. O=C(NCc1ccc2cc(CNC3CCC(F)(F)CC3)[nH]c2c1)c1cc(=O)n2cc3c(cc2n1)OCO3
6. O=C(NCc1ccc2cc(CNC3CC(F)(F)C3)[nH]c2c1)c1cc(=O)n2cc3c(cc2n1)OCO3
7. O=C(NCc1ccc2cc(CN3CCOC4(CCC4)C3)[nH]c2c1)c1cc(=O)n2cc3c(cc2n1)OCCO3

Result:
["6.00 to 7.00", "> 8.00", "6.00 to 7.00", "> 8.00", "7.00 to 8.00", "7.00 to 8.00", "6.00 to 7.00"]

Go through the list and state pIC50 for each entry.
1. O=C(NCc1ccc2cc(CNC3CCC(F)(F)C3)[nH]c2c1)c1cc(=O)n2cc3c(cc2n1)OCO3 (stereo not drawn)
2. [2H]C([2H])(NCc1cc2cc(F)c(CNC(=O)c3cc(=O)n4cc5c(cc4n3)OCO5)cc2[nH]1)C12CC(CO1)C2

Result:
1. > 8.00
2. 7.00 to 8.00
